Source of measurements: patent US20070037790A1

- measurement_target: Cdk2/Cyclin A (Homo sapiens)
- assay_name: Inhibition assay of Cdk2/Cyclin A activity (SPA)
- condition_summary: 10 μM ATP, biotinylated histone H1 substrate, read-out: IC50 against Cdk2/Cyclin A
- Experimental: The inhibiting activity of putative Cdk/Cyclin inhibitors and the potency of selected compounds is determined through a method of assay based on the use of the SPA technology (Amersham Pharmacia Biotech). The assay consists of the transfer of radioactivity labelled phosphate moiety by the kinase to a biotinylated substrate. […]
This listing pairs molecules with measured pIC50.
For clarity, pIC50 is expressed as the negative log10 of concentration in mol/L.

>>> value_observed("CC(C)(C)c1ccc(C(=O)Nc2[nH]nc3c2CN(C(=O)c2cnccn2)C3)cc1")
5.60

# evaluate next
Query string: Recall the reported pIC50 of CC(C)(C)c1ccc(C(=O)Nc2n[nH]c3c2CN(c2ccnc(N4CCOCC4)n2)C3)cc1 on Cdk2/Cyclin A (Homo sapiens) and write it down.
Result string: 6.47
